- Tested on: Aspergillus niger
- Assay notes: Antifungal activity against Aspergillus niger by food poison technique
- Assay type: functional
- Reported conditions: read-out: ED50 (the source's name)
Categorized via EC50: lower band (below 90 µg/mL), central band (90 µg/mL to below 500 µg/mL), upper band (500 µg/mL or more)

Please classify: `CCn1cc(-c2nnc(S)n2/N=C/c2ccc(O)cc2)c(=O)c2ccc(C)nc21` upper band

Which of the defined bands does the recorded EC50 of `CCn1cc(-c2nnc(S)n2/N=C/c2ccc([N+](=O)[O-])cc2)c(=O)c2ccc(C)nc21` sit within? central band

Given `CCn1cc(-c2nnc(S)n2/N=C/c2ccc(C#N)cc2)c(=O)c2ccc(C)nc21` , name the class its EC50 places it in. central band

In plain terms, what class is `CCn1cc(-c2nnc(S)n2/N=C/c2ccc(C(F)(F)F)cc2)c(=O)c2ccc(C)nc21` ? central band

GET /class?item= `CCn1cc(-c2nnc3sc(S)nn23)c(=O)c2ccc(C)nc21` central band

Lab note: sort `CCOc1ccc(/C=N/n2c(S)nnc2-c2cn(CC)c3nc(C)ccc3c2=O)cc1` into the matching EC50 band. lower band

Kindly identify the class of `CCn1cc(-c2nnc(S)[nH]2)c(=O)c2ccc(C)nc21` . lower band

Which class is correct for the following molecule? `CCn1cc(-c2nnc(S)n2N)c(=O)c2ccc(C)nc21` upper band

* * *

- Tested on: Aspergillus niger
- Assay notes: Antifungal activity against Aspergillus niger by food poison technique
- Format: functional
- Reported conditions: read-out: ED50 (the source's name)
Please assign no whenever EC50 is at or above 100 µg/mL, and yes whenever it is below.

Does the reported EC50 of `CCc1ccc(/C=N/n2c(S)nnc2-c2cn(CC)c3nc(C)ccc3c2=O)cc1` stay below 100 µg/mL? no

Bench note: check whether `CCn1cc(-c2nnc(S)n2/N=C/c2ccc(C)cc2)c(=O)c2ccc(C)nc21` shows EC50 below 100 µg/mL yes

Report whether reported EC50 is lower than 100 µg/mL (strictly) for `CCn1cc(-c2nnc(S)n2/N=C/c2cccc([N+](=O)[O-])c2)c(=O)c2ccc(C)nc21` no

hey, is EC50 for `CCn1cc(-c2nnc(S)n2/N=C/c2ccc(C(C)(C)C)cc2)c(=O)c2ccc(C)nc21` lower than 100 µg/mL or not? no

Lab note: confirm whether the reported EC50 for this compound is below 100 µg/mL, equality not counting. compound: `CCn1cc(-c2nnc(S)n2/N=C/c2cccc(Br)c2)c(=O)c2ccc(C)nc21` no

Find out if reported EC50 for `CCn1cc(-c2nnc3sc(-c4cccc([N+](=O)[O-])c4)nn23)c(=O)c2ccc(C)nc21` is less than 100 µg/mL yes

Problem: For the compound `CCn1cc(-c2nnc(S)n2/N=C/c2ccc(F)cc2)c(=O)c2ccc(C)nc21` , is EC50 under 100 µg/mL? no

Threshold test, EC50 < 100 µg/mL: `CCn1cc(-c2nnc(S)n2/N=C/c2ccc(Cl)cc2)c(=O)c2ccc(C)nc21` no

* * *

For each of the compounds below, state its MIC90.
- System: Bacillus subtilis
- Assay notes: Antibacterial activity against Bacillus subtilis ATCC 12711 after 24 hrs by broth micro dilution assay
- Assay type: functional
- Reported conditions: ATCC 12711, 24 h
Include the unit after the number when you answer.

Quick check: MIC90 of `CCn1cc(-c2nnc(S)n2/N=C/c2ccc(F)cc2)c(=O)c2ccc(C)nc21` ? 63 µg/mL

Given the entry `CCn1cc(-c2nnc(S)n2/N=C/c2ccc(C(C)C)cc2)c(=O)c2ccc(C)nc21` , report its measured MIC90. 16 µg/mL

Give its MIC90 value. Item: `CCn1cc(-c2nnc3n2N=C(c2ccccc2)CS3)c(=O)c2ccc(C)nc21` 125 µg/mL

// lookup MIC90 for `CCn1cc(-c2nnc(S)[nH]2)c(=O)c2ccc(C)nc21` 31 µg/mL

I have this compound here, `CCn1cc(-c2nnc3sc(-c4cccc(Cl)c4Cl)nn23)c(=O)c2ccc(C)nc21` , and I need its recorded MIC90. 63 µg/mL

Record request: MIC90 value, item `CCn1cc(-c2nnc(S)n2/N=C/c2ccc(Cl)cc2)c(=O)c2ccc(C)nc21` 16 µg/mL

Given `CCn1cc(-c2nnc(S)n2/N=C/c2ccccc2)c(=O)c2ccc(C)nc21` , state its recorded MIC90. 250 µg/mL

Given the entry CN[C@@H]1[C@H](O[C@H]2[C@H](O[C@H]3[C@H](O)[C@@H](O)[C@H](N=C(N)N)[C@@H](O)[C@@H]3N=C(N)N)O[C@@H](C)[C@]2(O)C=O)O[C@@H](CO)[C@H](O)[C@H]1O [STREPTOMYCIN] , report its measured MIC90. 5 µg/mL

* * *

Give measured MIC90 for each item. Keep answers brief.
- Tested on: Staphylococcus aureus
- Assay notes: Antibacterial activity against Staphylococcus aureus ATCC 2937 after 24 hrs by broth micro dilution assay
- Type: functional
- Reported conditions: ATCC 2937, 24 h
Please reply with the bare figure in µg/mL and do not write the unit itself.

Any idea what MIC90 came out for `CCn1cc(-c2nnc3sc(-c4ccc(Cl)cc4)nn23)c(=O)c2ccc(C)nc21` on Staphylococcus aureus? 63

Under Staphylococcus aureus: MIC90 value of `CCn1cc(-c2nnc(S)n2/N=C/c2ccc(OC)cc2)c(=O)c2ccc(C)nc21` ? 125

API: value(readout=MIC90, system=Staphylococcus aureus) for record `O=C(O)c1cn(C2CC2)c2cc(N3CCNCC3)c(F)cc2c1=O` 10

Entry `CCn1cc(-c2nnc(S)n2/N=C/c2ccc(F)cc2)c(=O)c2ccc(C)nc21` , system Staphylococcus aureus: what MIC90 was measured? 125

API: value(readout= MIC90, system= Staphylococcus aureus, query= `CCn1cc(-c2nnc(S)n2/N=C/c2cccc(Br)c2)c(=O)c2ccc(C)nc21` ) 125

Missing value: MIC90, Staphylococcus aureus, entry `CCn1cc(-c2nnc3n2N=C(c2ccccc2)CS3)c(=O)c2ccc(C)nc21` . Fill in? 63

Requested read-out MIC90, target or system Staphylococcus aureus, entry `CCOc1ccc(/C=N/n2c(S)nnc2-c2cn(CC)c3nc(C)ccc3c2=O)cc1` 125

Recall the recorded MIC90 for `CCn1cc(-c2nnc(S)n2/N=C/c2c(Cl)cccc2Cl)c(=O)c2ccc(C)nc21` with Staphylococcus aureus and state it. 125

Given the entry `CCn1cc(-c2nnc(S)n2/N=C/c2ccc(SC)cc2)c(=O)c2ccc(C)nc21` , what MIC90 was observed with Staphylococcus aureus? 250

* * *

- Test system: Aspergillus niger
- Assay notes: Antifungal activity against Aspergillus niger by food poison technique
- Type: functional
- Reported conditions: read-out: ED50 (the source's name)
Can you tell me EC50 for the items I'm about to list?
# number only, unit µg/mL dropped from output

Give its EC50 value. Item: `CCn1cc(-c2nnc(S)n2NC(C)=O)c(=O)c2ccc(C)nc21` 111

Item `CCn1cc(-c2nnc(S)n2/N=C/c2ccc(C(C)C)cc2)c(=O)c2ccc(C)nc21` has what recorded EC50? 113

Fill in: EC50 of `CCn1cc(-c2nnc3sc(-c4ccccc4Cl)nn23)c(=O)c2ccc(C)nc21` is ___ 75.5

Suppose we examine the compound `CCn1cc(-c2nnc3sc(-c4cccc(Cl)c4Cl)nn23)c(=O)c2ccc(C)nc21` ; what EC50 value has been reported? 109

What does the record list as EC50 for `CCn1cc(-c2nnc(S)n2/N=C/c2ccc(N(C)C)cc2)c(=O)c2ccc(C)nc21` ? 101

Form field: reported EC50 of `CCn1cc(-c2nnc3sc(-c4ccc(Cl)cc4)nn23)c(=O)c2ccc(C)nc21` 514

Give the measured EC50 of `CCn1cc(-c2nnc3sc(-c4cccc(Cl)c4)nn23)c(=O)c2ccc(C)nc21` . 144

Could you share which EC50 value was measured for `CCn1cc(-c2nnc(S)n2/N=C/c2ccccc2)c(=O)c2ccc(C)nc21` ? 77.7

Fill in the blank: the reported EC50 of `CCn1cc(-c2nnc3sc(-c4ccccc4)nn23)c(=O)c2ccc(C)nc21` is ____. 79.6

Returns the measured EC50 for the input compound. Input: `CCn1cc(-c2nnc3sc(=O)c(=O)[nH]n23)c(=O)c2ccc(C)nc21` 348

* * *

- System: Pseudomonas aeruginosa
- Assay notes: Antibacterial activity against Pseudomonas aeruginosa ATCC 9027 after 24 hrs by broth micro dilution assay
- Assay type: functional
- Reported conditions: ATCC 9027, 24 h
Metric name: MIC90 (µg/mL)
Express your answer in µg/mL, writing the number without its unit.

Item `CCn1cc(-c2nnc(S)n2/N=C/c2ccc(F)cc2)c(=O)c2ccc(C)nc21` has what recorded MIC90? 16

Recorded MIC90 of `CCn1cc(-c2nnc3sc(-c4cccc([N+](=O)[O-])c4)nn23)c(=O)c2ccc(C)nc21` , please. 63

Could you tell me which MIC90 is on file for `CCn1cc(-c2nnc(S)n2/N=C/c2ccc(Cl)cc2)c(=O)c2ccc(C)nc21` ? 16

Look at this compound and give its reported MIC90. `CCn1cc(-c2nnc(S)n2NC(C)=O)c(=O)c2ccc(C)nc21` 250

Need MIC90 of `CCn1cc(-c2nnc(S)n2N)c(=O)c2ccc(C)nc21` , thanks. 63

Which MIC90 value belongs to `CCn1cc(-c2nnc3sc(-c4cccc(Cl)c4Cl)nn23)c(=O)c2ccc(C)nc21` ? 63

Find the recorded MIC90 belonging to `CCn1cc(-c2nnc(S)n2/N=C/c2ccc(Cl)cc2Cl)c(=O)c2ccc(C)nc21` and report it. 63

# input compound: `CCn1cc(-c2nnc(S)n2/N=C/c2ccc(C(F)(F)F)cc2)c(=O)c2ccc(C)nc21` ; wanted: its MIC90 63

Using the record for `CCn1cc(-c2nnc3sc(S)nn23)c(=O)c2ccc(C)nc21` , report its MIC90. 31

Tell me the measured MIC90 of `CCc1ccc(/C=N/n2c(S)nnc2-c2cn(CC)c3nc(C)ccc3c2=O)cc1` , please. 63

Returns the measured MIC90 for the input compound. Input: `CCn1cc(-c2nnc(S)n2/N=C/c2ccc(C#N)cc2)c(=O)c2ccc(C)nc21` 63

Any idea what its MIC90 is? The compound is `CCn1cc(-c2nnc(S)n2/N=C/c2ccc(Br)cc2)c(=O)c2ccc(C)nc21` 62

For the compound `CCn1cc(-c2nnc3sc(-c4ccc(Cl)cc4)nn23)c(=O)c2ccc(C)nc21` , what MIC90 is on record? 125

So what does the record say about MIC90 for `CCn1cc(-c2nnc(S)n2/N=C/c2ccc(SC)cc2)c(=O)c2ccc(C)nc21` ? 63

Param item = `CCn1cc(-c2nnc3sc(-c4ccccc4Cl)nn23)c(=O)c2ccc(C)nc21` ; retrieve measured MIC90. 16

Request the reported MIC90 associated with `CCn1cc(-c2nnc(S)n2/N=C/c2cccc([N+](=O)[O-])c2)c(=O)c2ccc(C)nc21` 63

Give the measured MIC90 of `CCn1cc(-c2nnc(S)n2/N=C/c2ccc(O)cc2)c(=O)c2ccc(C)nc21` . 63

Reported MIC90, compound `CCn1cc(-c2nnc3sc(=O)c(=O)[nH]n23)c(=O)c2ccc(C)nc21` : ____ 125

Quick one: MIC90 for `CCn1cc(-c2nnc(S)n2/N=C/c2ccc(N(C)C)cc2)c(=O)c2ccc(C)nc21` ? 16

Consider the compound shown here: `CCn1cc(-c2nnc3sc(-c4cccc(Cl)c4)nn23)c(=O)c2ccc(C)nc21` What is its recorded MIC90? 63

Requested read-out: MIC90. Entry: `CCn1cc(-c2nnc3sc(-c4ccccc4)nn23)c(=O)c2ccc(C)nc21` 63

Look at this compound and give its reported MIC90. `CCn1cc(-c2nnc(S)n2/N=C/c2ccccc2)c(=O)c2ccc(C)nc21` 16
